# YAP1 (% UTC) annotations
system: Yap1 mRNA; test: Antisense inhibition of human Yap1 in A-431 cells by cEt gapmers, single dose (Example 3, RTS36584); type: cell-based; details: Table 35; Yap1 mRNA as percent of untreated control; 3-10-3 cEt gapmers targeting SEQ ID NO: 1 and 2; single dose
Strand notation (5' to 3'): a small letter for the sugar, then the base; units joined by * are phosphorothioate-linked, units joined directly phosphodiester-linked; [ ] holds rarer units or linkages, { } end groups; capitals alone tell only the bases. k = constrained ethyl (cEt); [5mC] = 5-methylcytosine; d = 2'-deoxy (DNA)
Your answer should be a plain number; it is taken to be in % UTC.

Example entries begin here.
substance="1074325 (antisense k[5mC]*kG*k[5mC]*dA*dG*dG*dG*d[5mC]*dT*dA*dA*d[5mC]*dT*k[5mC]*k[5mC]*kT) [compound 1074325]" measurement_type="YAP1 (% UTC)" result_unit="% UTC" measured_value=42
substance="1075157 (k[5mC]*k[5mC]*kA*dG*dA*dA*dA*dA*dT*d[5mC]*dA*dT*dA*kG*kT*kA; antisense) [compound 1075157]" measurement_type="YAP1 (% UTC)" result_unit="% UTC" measured_value=19

stdin: For Yap1 mRNA, provide YAP1 (% UTC) of 1075221 (k[5mC]*kA*kT*dT*dA*dT*d[5mC]*d[5mC]*dG*dG*dG*dA*dG*kA*kG*k[5mC]; antisense) [compound 1075221] please.
stdout: 10
